Where do these numbers come from? They come from ChEMBL document CHEMBL5316269.

# Target system: Retinoic acid receptor RXR-gamma (Homo sapiens)
# Sequence (P48443 whole entry): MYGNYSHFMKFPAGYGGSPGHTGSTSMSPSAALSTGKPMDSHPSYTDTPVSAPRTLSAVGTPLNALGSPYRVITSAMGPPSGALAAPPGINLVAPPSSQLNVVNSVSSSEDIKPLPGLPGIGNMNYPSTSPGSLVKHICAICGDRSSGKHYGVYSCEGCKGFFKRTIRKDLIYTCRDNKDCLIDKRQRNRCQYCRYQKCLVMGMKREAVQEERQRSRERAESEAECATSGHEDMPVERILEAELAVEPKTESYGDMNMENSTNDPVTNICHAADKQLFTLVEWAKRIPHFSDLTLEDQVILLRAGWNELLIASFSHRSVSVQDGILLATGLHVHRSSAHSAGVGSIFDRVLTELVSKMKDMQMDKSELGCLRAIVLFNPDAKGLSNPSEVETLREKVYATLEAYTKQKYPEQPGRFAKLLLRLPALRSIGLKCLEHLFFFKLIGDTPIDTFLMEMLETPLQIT
# Assay overview: Binding affinity to human RXRgamma LBD and measured for 180 sec by ITC analysis
Recorded endpoint: Kd
Put your answer as a value accompanied by its unit after it.

## Input Answer with the recorded Kd for the compound listed here: `Cc1ccc(OCc2ccc(CCC(=O)O)c(F)c2)c2c1CCC2`
## Output 6 µM

* * *

# Target system: Retinoic acid receptor RXR-beta (Homo sapiens, UniProt P28702)
# Sequence (P28702 whole entry): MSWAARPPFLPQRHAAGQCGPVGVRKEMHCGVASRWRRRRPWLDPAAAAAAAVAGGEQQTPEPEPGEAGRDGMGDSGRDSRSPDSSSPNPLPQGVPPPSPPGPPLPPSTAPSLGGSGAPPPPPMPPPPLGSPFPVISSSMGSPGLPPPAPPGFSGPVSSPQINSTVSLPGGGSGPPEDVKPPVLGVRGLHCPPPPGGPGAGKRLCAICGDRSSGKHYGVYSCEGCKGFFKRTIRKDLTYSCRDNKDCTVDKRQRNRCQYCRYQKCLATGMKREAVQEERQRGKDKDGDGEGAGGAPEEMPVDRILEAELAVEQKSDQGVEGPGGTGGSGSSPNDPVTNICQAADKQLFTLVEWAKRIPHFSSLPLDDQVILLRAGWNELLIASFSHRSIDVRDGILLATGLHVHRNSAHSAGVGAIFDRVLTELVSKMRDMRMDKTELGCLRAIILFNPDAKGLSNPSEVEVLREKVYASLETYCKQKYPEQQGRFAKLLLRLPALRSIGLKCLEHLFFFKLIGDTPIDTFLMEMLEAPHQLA
# Assay overview: Agonist activity at human GAL4-fused RXRbeta LBD expressed in human HEK293T cells cotransfected with pFR-Luc and pRL-SV40 assessed as increase in luciferase activity incubated for 16 hrs by Dual-Glo luciferase assay
A collection of compounds and their measured pEC50
Give only the number. pEC50 is defined as minus log10 of concentration in molar units.

See these solved cases before continuing.
- Structure smiles: "Cc1cc(COc2cccc3c2CCC3)ccc1CC(=O)O"
  Measured value: 4.37
- Structure smiles: "Cc1ccc(OCc2ccc(CCC(=O)O)c(Cl)c2)c2c1CCC2"
  Measured value: 5.10
- Structure smiles: "CC1=C2[C@H](/C=C(\\C)C(=O)O)CC[C@@H](C)[C@H]2CC1"
  Measured value: 5.30
- Structure smiles: "Cc1ccc(OCc2ccc(CC(=O)O)cc2)c2c1CCC2"
  Measured value: 5.60
- Structure smiles: "Cc1ccc(OCc2ccc(C(=O)O)c(F)c2)c2c1CCC2"
  Measured value: 5.54
- Structure smiles: "O=C(O)c1ccc(COc2cccc3c2CCC3)cc1"
  Measured value: 5.82
- Structure smiles: "O=C(O)CCc1ccc(COc2cccc3c2CCC3)cc1F"
  Measured value: 5.55

Turning now to a further record.
## Input Answer with the recorded pEC50 for the compound listed here: `Cc1ccc(OCc2ccc(CCC(=O)O)cc2)c2c1CCC2`
## Output 5.96
